- Test system: biotinyl-Phe-oxazolone
- method_description: self-aminoacylation, catalytic enhancement (BFO) (fold over background); higher = more active; k-Seq, kA / k0A0; sequences stand for … in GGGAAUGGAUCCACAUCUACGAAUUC…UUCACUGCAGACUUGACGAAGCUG
Variants at the floor of the assay were thinned out.
Cut-off 8 on self-aminoacylation, inclusive. At or above means y; below means n.

Please review the following examples before continuing.
>>> df
                             residue_string  label
0  AUUCACCUAUGACAUCGGGUG [Fam2.2 aminoacylation ribozyme variant]      y
1  CCACACUUAAAGCAAACGGUC [Fam1B.1 aminoacylation ribozyme variant]      n
2  AUUACUCUUGUCAUCGAGUGA [Fam2.1 aminoacylation ribozyme variant]      y
3  AAGUUUCCUAAUAGUCGCACG [Fam3.1 aminoacylation ribozyme variant]      n
4  AAGUUUACUAAUAGUUGCAAG [Fam3.1 aminoacylation ribozyme variant]      n
5  AUUCCCCUAGAUCAUCGGGUG [Fam2.2 aminoacylation ribozyme variant]      y
6  CUUACCUUGGUCAUCGAGUGA [Fam2.1 aminoacylation ribozyme variant]      n
7  AUUCACGUAGCUCAUCGGGUG [Fam2.2 aminoacylation ribozyme variant]      y

Incoming: Quick check: does AAUUUUGCUAAUAGUCGGAAG [Fam3.1 aminoacylation ribozyme variant] have self-aminoacylation greater than or equal to 8?
Outgoing: n

Incoming: Quick check: does AUUACCCUGGCAAUCGAGUGA [Fam2.1 aminoacylation ribozyme variant] have self-aminoacylation greater than or equal to 8?
Outgoing: y

Incoming: Quick check: does CCACACUUCAAGCAAUCUAUC [Fam1B.1 aminoacylation ribozyme variant] have self-aminoacylation greater than or equal to 8?
Outgoing: n

Incoming: Quick check: does CUAAUUCAAACAAUUGGUCUG [Fam1A.1 aminoacylation ribozyme variant] have self-aminoacylation greater than or equal to 8?
Outgoing: n

Incoming: Quick check: does ACACACGUCAAGCAAUCGGUC [Fam1B.1 aminoacylation ribozyme variant] have self-aminoacylation greater than or equal to 8?
Outgoing: n

Incoming: Quick check: does AUACACCUAGGUGAUCGGGUG [Fam2.2 aminoacylation ribozyme variant] have self-aminoacylation greater than or equal to 8?
Outgoing: y
